B1: glmS ribozyme (parent)
chain: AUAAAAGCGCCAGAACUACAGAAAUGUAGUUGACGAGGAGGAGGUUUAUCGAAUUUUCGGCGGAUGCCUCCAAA

variants of: B1; test: self-cleavage kobs at 2500 uM GlcN6P; higher = faster cleavage; RNA array; details: with glucosamine-6-phosphate
Fewer inactive variants are shown than the library holds.
quantity: self-cleavage kobs at 2500 uM GlcN6P (s⁻¹)
Output spec: scalar in s⁻¹, unitless text.

Req: Consider the variant shown here: C16A G32U What is its recorded self-cleavage kobs at 2500 uM GlcN6P?
Resp: 0.000143

The origin of these recorded values is the supplement of paper PMC7125110.
